relative viability: recorded values
# Test system: NCI-H358
# experiment notes: relative viability (nuclei count vs DMSO), 5 days (fraction); higher = more cells survive
# details: first compound 0.01 µM
reported metric: relative viability

>>> numeric_result("CC(C)Oc1cc(Nc2nc(N[C@@H](C)c3ccc(F)cn3)ncc2Cl)n[nH]1 [AZ23] + Nc1ncn([C@H]2C[C@H](O)[C@@H](CO)O2)c(=O)n1 [Decitabine] (partner 2 µM)")
0.261
>>> numeric_result("CC(C)Oc1cc(Nc2nc(N[C@@H](C)c3ccc(F)cn3)ncc2Cl)n[nH]1 [AZ23] + CS(=O)(=O)N1CCN(Cc2cc3nc(-c4cccc5[nH]ncc45)nc(N4CCOCC4)c3s2)CC1 [Pictilisib] (partner 1 µM)")
0.404
>>> numeric_result("CC(C)Oc1cc(Nc2nc(N[C@@H](C)c3ccc(F)cn3)ncc2Cl)n[nH]1 [AZ23] + CS(=O)(=O)CCNCc1ccc(-c2ccc3ncnc(Nc4ccc(OCc5cccc(F)c5)c(Cl)c4)c3c2)o1 [Lapatinib] (partner 2 µM)")
0.505
